Consider the following binders and their measured Leakage activity readings.
# System: T1, Chryseobacterium sp-62563 deamidase polypeptide (second polypeptide, deamidase domain), wildtype (Chryseobacterium sp-62563)
# T1 sequence: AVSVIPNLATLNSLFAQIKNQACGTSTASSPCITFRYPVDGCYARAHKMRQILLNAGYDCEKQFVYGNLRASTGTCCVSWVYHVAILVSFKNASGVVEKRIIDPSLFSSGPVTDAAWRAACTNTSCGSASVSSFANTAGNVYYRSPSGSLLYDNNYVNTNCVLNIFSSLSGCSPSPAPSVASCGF
# Assay Text: cell-based or functional assay
Your answer should be a plain number; it is taken to be in %.

Known Leakage activity results, listed for orientation:
>  <Binder>
Chryseobacterium sp-62563 propeptide F19P (protein) NQDPNLVAKESNETAMKDPGKTVPVGIEKEDGKFKISFMVTAQPYEIKDSKENAAYISMIKTAVENETPIHVFLKANTNEIAKVDKATDDDIRYFKSVFTKEVKEENRK

>  <Leakage activity (%)>
3

$$$$
>  <Binder>
Chryseobacterium sp-62563 propeptide T88P (protein) NQDPNLVAKESNETAMKDFGKTVPVGIEKEDGKFKISFMVTAQPYEIKDSKENAAYISMIKTAVENETPIHVFLKANTNEIAKVDKAPDDDIRYFKSVFTKEVKEENRK

>  <Leakage activity (%)>
0

$$$$

Data point: Chryseobacterium sp-62563 propeptide F95G (protein) NQDPNLVAKESNETAMKDFGKTVPVGIEKEDGKFKISFMVTAQPYEIKDSKENAAYISMIKTAVENETPIHVFLKANTNEIAKVDKATDDDIRYGKSVFTKEVKEENRK ; Leakage activity = 0

Value of measured Leakage activity for the entry Chryseobacterium sp-62563 propeptide Y94I (protein) NQDPNLVAKESNETAMKDFGKTVPVGIEKEDGKFKISFMVTAQPYEIKDSKENAAYISMIKTAVENETPIHVFLKANTNEIAKVDKATDDDIRIFKSVFTKEVKEENRK : 0
